Provide the recorded inhibition at 1 µM for the entries that follow.
Biological target: Human PI3K delta (Homo sapiens, UniProt O00329)
Construct: His (N); host or cells: SF9 insect cells (baculovirus)
Sequence (O00329 whole entry): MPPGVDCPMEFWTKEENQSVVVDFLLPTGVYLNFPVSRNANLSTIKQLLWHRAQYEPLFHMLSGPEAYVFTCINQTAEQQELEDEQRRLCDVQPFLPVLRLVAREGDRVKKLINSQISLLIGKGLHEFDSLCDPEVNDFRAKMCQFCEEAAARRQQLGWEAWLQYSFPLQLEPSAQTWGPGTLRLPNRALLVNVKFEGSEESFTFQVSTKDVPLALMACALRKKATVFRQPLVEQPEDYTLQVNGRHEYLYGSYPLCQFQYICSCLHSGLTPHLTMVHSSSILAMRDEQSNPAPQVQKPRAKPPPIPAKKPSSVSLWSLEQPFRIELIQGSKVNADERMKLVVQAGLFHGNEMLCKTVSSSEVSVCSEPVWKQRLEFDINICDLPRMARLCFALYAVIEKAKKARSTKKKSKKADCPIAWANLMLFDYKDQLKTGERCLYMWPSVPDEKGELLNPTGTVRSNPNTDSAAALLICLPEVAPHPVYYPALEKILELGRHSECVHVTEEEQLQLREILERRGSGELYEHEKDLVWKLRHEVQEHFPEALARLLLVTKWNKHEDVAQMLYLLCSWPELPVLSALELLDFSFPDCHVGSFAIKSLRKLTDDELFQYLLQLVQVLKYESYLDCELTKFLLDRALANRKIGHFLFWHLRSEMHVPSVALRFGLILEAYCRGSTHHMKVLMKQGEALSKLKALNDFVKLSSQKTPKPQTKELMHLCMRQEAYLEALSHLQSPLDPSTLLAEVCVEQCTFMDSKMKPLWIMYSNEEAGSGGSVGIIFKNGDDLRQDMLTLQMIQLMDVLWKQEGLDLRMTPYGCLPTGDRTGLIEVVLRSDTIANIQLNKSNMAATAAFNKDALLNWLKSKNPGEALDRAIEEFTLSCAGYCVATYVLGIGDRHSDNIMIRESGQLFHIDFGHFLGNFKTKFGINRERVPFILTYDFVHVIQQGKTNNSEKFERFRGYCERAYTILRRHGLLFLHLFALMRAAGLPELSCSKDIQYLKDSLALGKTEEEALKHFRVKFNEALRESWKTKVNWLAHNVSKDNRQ
Sequence (P27986 whole entry partner): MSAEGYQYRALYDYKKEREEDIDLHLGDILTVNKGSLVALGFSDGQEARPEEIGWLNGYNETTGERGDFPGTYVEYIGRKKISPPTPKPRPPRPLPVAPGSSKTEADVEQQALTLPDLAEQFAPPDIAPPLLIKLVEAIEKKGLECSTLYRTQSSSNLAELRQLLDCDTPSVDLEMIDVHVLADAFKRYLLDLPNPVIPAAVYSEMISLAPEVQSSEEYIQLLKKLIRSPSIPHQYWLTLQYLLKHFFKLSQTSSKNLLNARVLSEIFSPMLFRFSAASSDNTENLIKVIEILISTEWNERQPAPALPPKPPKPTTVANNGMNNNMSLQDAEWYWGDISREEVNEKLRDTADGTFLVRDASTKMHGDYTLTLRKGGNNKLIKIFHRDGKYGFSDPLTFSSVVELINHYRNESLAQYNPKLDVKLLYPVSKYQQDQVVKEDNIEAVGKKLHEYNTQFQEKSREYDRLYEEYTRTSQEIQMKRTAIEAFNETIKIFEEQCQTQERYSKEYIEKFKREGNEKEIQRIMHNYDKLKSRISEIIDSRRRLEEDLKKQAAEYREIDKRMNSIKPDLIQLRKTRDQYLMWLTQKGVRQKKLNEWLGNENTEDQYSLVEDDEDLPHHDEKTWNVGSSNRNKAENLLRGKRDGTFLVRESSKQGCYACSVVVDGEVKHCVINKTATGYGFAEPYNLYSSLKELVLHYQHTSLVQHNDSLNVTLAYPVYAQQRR
Assay: Human PI3K delta enzyme assay (HTRF)
Type: biochemical
Conditions: concentration not given; b1389 states 1.0 μM for PI3K δ and γ; read-out: p110 delta Percent Inhibition
Description: The catalytic subunits of PI3Ks are cloned into either pDEST8(p110 alpha) or pDEST10(p110beta, p110delta, and p110gamma) as N-terminal His tagged fusion proteins using the Gateway system (Invitrogen, catalog#11804-010 for pDEST8 and 11806-015 for pDEST10). […] For the assay methods described above, test compound percent inhibition, at various concentrations, is calculated relative to control (DMSO and EDTA) treated samples. […]
One number for each entry, in %.

{"MOLECULE": "N#Cc1c(N2CCOCC2)sc(C(=O)O)c1Cc1ccc2sccc2c1 [Compound 311]", "inhibition at 1 µM / %": 105}
{"MOLECULE": "OC(c1cccc(C(F)(F)F)c1)c1cc(-c2ccncc2)sc1-c1nnc[nH]1 (centres unmarked) [Compound 159]", "inhibition at 1 µM / %": 31}
{"MOLECULE": "OC(c1cc(-c2ccncc2)sc1-c1nnc[nH]1)c1cccc2ccccc12 (centres unmarked) [Compound 228]", "inhibition at 1 µM / %": 57}
{"MOLECULE": "CC(=O)Nc1cc(-c2cc(C(c3ccc(Cl)cc3)N3CC[C@@H](CO)C3)c(-c3nc[nH]n3)s2)ccn1 (some centres unmarked) [Compound 223]", "inhibition at 1 µM / %": 102}
{"MOLECULE": "O=C(Nc1cc(-c2cc(C(c3ccc(Cl)cc3)N3CCNCC3)c(-c3nnc[nH]3)s2)ccn1)C1CC1 (centres unmarked) [Compound 146]", "inhibition at 1 µM / %": 110}
{"MOLECULE": "CN(C)C(c1ccc(Cl)cc1)c1c(C(=O)O)sc(N2CCOCC2)c1C#N (centres unmarked) [Compound 351]", "inhibition at 1 µM / %": 79}

For every record below, what is its inhibition at 1 µM?
1. CC(C)(C)[S+]([O-])NC(c1ccc(Cl)c(Cl)c1)c1c(C(=O)O)sc(N2CCOCC2)c1C#N (centres unmarked) [Compound 342]
2. OC(c1ccccc1-c1cccnc1)c1cc(-c2ccncc2)sc1-c1nnc[nH]1 (centres unmarked) [Compound 276]
3. N#Cc1c(N2CCOCC2)sc(C(=O)O)c1C(F)(F)c1ccc(Cl)cc1 [Compound 358]
4. CC(=O)Nc1cc(-c2cc(C(c3ccc(Cl)cc3)N3CC(N(C)C)C3)c(-c3nnc[nH]3)s2)ccn1 (centres unmarked) [Compound 144]

[97, 12, 51, 111]

For every record below, what is its inhibition at 1 µM?
1. N#Cc1c(N2CCOCC2)sc(C(=O)O)c1C(F)c1ccc2ccccc2c1 (centres unmarked) [Compound 345]
2. O=C(O)c1sc(-c2ccncc2)cc1C(O)c1ccc2ccccc2c1 (centres unmarked) [Compound 205]
3. O=C(O)c1sc(N2CCOCC2)c(F)c1Cc1ccc(Cl)c(Cl)c1 [Compound 320]
4. NS(=O)(=O)c1sc(N2CCOCC2)nc1Cc1ccc2ccccc2c1 [Compound 329]
5. CC(=O)Nc1cc(-c2cc(C(c3ccc(Cl)cc3)N3CCC(F)(F)CC3)c(-c3nnc[nH]3)s2)ccn1 (centres unmarked) [Compound 221]
6. CC(=O)Nc1cc(-c2sc(-c3nnc[nH]3)c(C(O)c3ccc4ccccc4n3)c2C#N)ccn1 (centres unmarked) [Compound 153]
7. COc1ccc(C(O)c2cc(-c3ccncc3)sc2-c2nnc[nH]2)c(C)c1 (centres unmarked) [Compound 158]

[83, 83, 97, 80, 100, 87, 69]

Data provenance: patent US8796268B2
